Target: L25A PETNR (Enterobacter cloacae, UniProt P71278, L26A)
Sequence (P71278 entry or part of it L26A): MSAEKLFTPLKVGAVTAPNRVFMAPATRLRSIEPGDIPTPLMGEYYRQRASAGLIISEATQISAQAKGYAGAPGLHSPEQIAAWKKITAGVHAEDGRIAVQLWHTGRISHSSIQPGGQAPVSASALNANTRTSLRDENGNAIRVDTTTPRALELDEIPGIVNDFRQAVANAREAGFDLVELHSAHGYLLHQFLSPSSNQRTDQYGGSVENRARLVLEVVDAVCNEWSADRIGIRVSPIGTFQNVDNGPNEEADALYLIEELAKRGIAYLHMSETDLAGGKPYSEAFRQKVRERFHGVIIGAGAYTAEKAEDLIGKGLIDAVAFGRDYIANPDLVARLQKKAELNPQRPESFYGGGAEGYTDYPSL
Conditions: 5 °C; 10 mM NADPH or 25 mM NADH; pH 7.0
measurement label: kobs1 (s⁻¹)
Answer format: numeric, s⁻¹ implied, no suffix.

Worked cases, kobs1 given:
NC(=O)C1=CN([C@@H]2O[C@H](COP(=O)(O)OP(=O)(O)OC[C@H]3O[C@@H](n4cnc5c(N)ncnc54)[C@H](O)[C@@H]3O)[C@@H](O)[C@H]2O)C=CC1 [NADH] :: 1.27
NC(=O)C1=CN([C@@H]2O[C@H](COP(=O)(O)OP(=O)(O)OC[C@H]3O[C@@H](n4cnc5c(N)ncnc54)[C@H](OP(=O)(O)O)[C@@H]3O)[C@@H](O)[C@H]2O)C=CC1 [NADPH] :: 19.18
[2H][C@@H]1C=CN([C@@H]2O[C@H](COP(=O)(O)OP(=O)(O)OC[C@H]3O[C@@H](n4cnc5c(N)ncnc54)[C@H](O)[C@@H]3O)[C@@H](O)[C@H]2O)C=C1C(N)=O [(R)-[4-^2H]-NADH] :: 0.162

Alright, here's another molecule for you.
**Q:** May I ask what kobs1 has been recorded for [2H][C@@H]1C=CN([C@@H]2O[C@H](COP(=O)(O)OP(=O)(O)OC[C@H]3O[C@@H](n4cnc5c(N)ncnc54)[C@H](OP(=O)(O)O)[C@@H]3O)[C@@H](O)[C@H]2O)C=C1C(N)=O [(R)-[4-^2H]-NADPH] ?
**A:** 2.37

====

Molecular target: WT PETNR (Enterobacter cloacae, UniProt P71278)
Sequence (P71278 entry or part of it): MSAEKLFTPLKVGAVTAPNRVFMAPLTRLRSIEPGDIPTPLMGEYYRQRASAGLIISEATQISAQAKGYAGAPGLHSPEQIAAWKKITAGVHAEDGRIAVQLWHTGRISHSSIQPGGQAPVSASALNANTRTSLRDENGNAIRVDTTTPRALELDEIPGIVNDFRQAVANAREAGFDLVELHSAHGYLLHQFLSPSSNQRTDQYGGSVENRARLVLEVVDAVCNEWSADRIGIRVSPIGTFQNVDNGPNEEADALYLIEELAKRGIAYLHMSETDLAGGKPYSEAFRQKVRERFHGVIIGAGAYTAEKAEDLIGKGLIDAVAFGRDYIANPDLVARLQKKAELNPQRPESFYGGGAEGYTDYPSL
Test: Stopped-flow FMN reduction (reductive half-reaction, hydride transfer) of WT PETNR by coenzyme
Details: 35 °C; 10 mM NADPH or 25 mM NADH; pH 7.0
measurement label: kobs1

Observe how each entry below is paired with its result.
NC(=O)C1=CN([C@@H]2O[C@H](COP(=O)(O)OP(=O)(O)OC[C@H]3O[C@@H](n4cnc5c(N)ncnc54)[C@H](O)[C@@H]3O)[C@@H](O)[C@H]2O)C=CC1 :: 3.30 ± 0.01 s⁻¹
[2H][C@@H]1C=CN([C@@H]2O[C@H](COP(=O)(O)OP(=O)(O)OC[C@H]3O[C@@H](n4cnc5c(N)ncnc54)[C@H](O)[C@@H]3O)[C@@H](O)[C@H]2O)C=C1C(N)=O [(R)-[4-^2H]-NADH] :: 0.499 ± 0.011 s⁻¹
NC(=O)C1=CN([C@@H]2O[C@H](COP(=O)(O)OP(=O)(O)OC[C@H]3O[C@@H](n4cnc5c(N)ncnc54)[C@H](OP(=O)(O)O)[C@@H]3O)[C@@H](O)[C@H]2O)C=CC1 :: 50.46 ± 0.75 s⁻¹

**Q:** Given [2H][C@@H]1C=CN([C@@H]2O[C@H](COP(=O)(O)OP(=O)(O)OC[C@H]3O[C@@H](n4cnc5c(N)ncnc54)[C@H](OP(=O)(O)O)[C@@H]3O)[C@@H](O)[C@H]2O)C=C1C(N)=O [(R)-[4-^2H]-NADPH] , state its recorded kobs1.
**A:** 8.48 ± 0.03 s⁻¹

====

Biological target: L25A PETNR (Enterobacter cloacae, UniProt P71278, L26A)
Conditions: T0 = 298 K, fit of kobs1 (5–40 °C) to eq 1
measurement label: ΔCp^⧧ (kJ mol^–1 K^–1)
// note: answer is a bare numeric in kJ mol^–1 K^–1

NC(=O)C1=CN([C@@H]2O[C@H](COP(=O)(O)OP(=O)(O)OC[C@H]3O[C@@H](n4cnc5c(N)ncnc54)[C@H](O)[C@@H]3O)[C@@H](O)[C@H]2O)C=CC1 :: 0.28

Now for the compound whose ΔCp^⧧ we want.
**Q:** Give its ΔCp^⧧ value. Item: [2H][C@@H]1C=CN([C@@H]2O[C@H](COP(=O)(O)OP(=O)(O)OC[C@H]3O[C@@H](n4cnc5c(N)ncnc54)[C@H](O)[C@@H]3O)[C@@H](O)[C@H]2O)C=C1C(N)=O [(R)-[4-^2H]-NADH]
**A:** 0.42

Source: paper PMC6516726
